TARGET SYSTEM: T1, GINS (HIS-(3C)-Sld5, Psf1, Psf2, Psf3) for structural and fluorescence polarisation studies (UniProt Q9BRT9 1-223; Q14691 1-196; Q9Y248 1-185; Q9BRX5 1-216)
T1 construct: Sld5 subunit of GINS; Psf1 subunit of GINS, with its B domain; Psf2 subunit of GINS; Psf3 subunit of GINS; A 3C site follows the His tag on Sld5; no cleavage is described; also called GINS tetramer; GINS complex; source: Sf9 insect cells, single baculovirus (pBig1a), purified (TALON, Superdex200); copies: + + +
T1 sequence (Q9BRT9 whole entry, chain 1 of 4): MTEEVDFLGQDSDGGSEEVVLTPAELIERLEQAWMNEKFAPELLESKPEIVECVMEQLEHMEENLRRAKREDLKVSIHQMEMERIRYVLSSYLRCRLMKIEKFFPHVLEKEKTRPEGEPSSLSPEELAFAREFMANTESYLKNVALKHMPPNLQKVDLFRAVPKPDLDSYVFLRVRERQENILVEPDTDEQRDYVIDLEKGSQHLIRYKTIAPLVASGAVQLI
T1 sequence (Q14691 whole entry, chain 2 of 4): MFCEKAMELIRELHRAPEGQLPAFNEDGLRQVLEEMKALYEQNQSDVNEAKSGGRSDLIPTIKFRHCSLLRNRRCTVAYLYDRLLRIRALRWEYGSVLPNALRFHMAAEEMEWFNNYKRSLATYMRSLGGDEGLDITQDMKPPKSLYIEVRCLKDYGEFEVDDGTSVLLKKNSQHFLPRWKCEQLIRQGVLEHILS
T1 sequence (Q9Y248 whole entry, chain 3 of 4): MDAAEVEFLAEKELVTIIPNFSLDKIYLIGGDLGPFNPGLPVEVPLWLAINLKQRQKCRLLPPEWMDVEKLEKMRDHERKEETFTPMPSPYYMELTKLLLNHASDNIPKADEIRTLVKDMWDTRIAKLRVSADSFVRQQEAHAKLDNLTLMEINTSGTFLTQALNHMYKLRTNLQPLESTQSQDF
T1 sequence (Q9BRX5 whole entry, chain 4 of 4): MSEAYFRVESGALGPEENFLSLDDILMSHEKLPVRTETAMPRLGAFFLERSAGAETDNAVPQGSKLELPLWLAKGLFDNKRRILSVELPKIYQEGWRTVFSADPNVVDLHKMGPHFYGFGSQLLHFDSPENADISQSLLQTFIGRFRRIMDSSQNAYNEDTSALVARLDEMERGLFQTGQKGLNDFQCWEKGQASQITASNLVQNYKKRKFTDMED
PROTOCOL NOTES: fluorescence polarisation; 100 nM fluorescein-labelled peptide, increasing concentrations of GINS; 25 mM HEPES pH 7.5, 150 mM NaCl, 1 mM EDTA, 0.25 mM TCEP, 0.02% Tween 20; room temperature
PROTOCOL CONDITIONS: both partners purified
No end group written: not given here. Flu = fluorescein
REPORTED ENDPOINT: Kd

GET /values?readout=Kd&item= Flu-GYGAPSEKHEQADEDLLSQYENG (not fully specified; printed as Flu-GYGAPSEKHEQADEDLLSQYENG, three residues printed before the TopBP1 stretch Ala478-Gly497; human TopBP1 GINI core, Ala478-Gly497; also called TopBP1-GINI-core peptide WT; source: synthetic peptide (Peptide Protein Research Ltd)) [fluorescently labelled GINI-core peptide (Ala478-Gly497), WT]
~8 µM
